biological target: T1, Monkey 4-1BB extracellular region recombinant protein (his-tag) (monkey); test: ELISA, coated monkey 4-1BB-his 200 ng/well; antibody 0.014 µg/ml
T1 construct: extracellular domain; also called Monkey4-1BB, his-tag
observation type: absorbance at 450 nm
Lab note: jot the number down without any unit.

INSERT INTO results (binder, result_value) VALUES
  ('137-18 VHH-hFc recombinant antibody (Fc fusion, VHH fragment inserted into vector pFclG with human IgG1 Fc tag, expressed in HEK293F; also called CD137-18; not shown: human IgG1 Fc tag of the eukaryotic expression vector pFclG) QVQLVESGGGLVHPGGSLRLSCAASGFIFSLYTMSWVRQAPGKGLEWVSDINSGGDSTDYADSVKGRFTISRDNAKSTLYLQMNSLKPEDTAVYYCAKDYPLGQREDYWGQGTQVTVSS', 0.325),
  ('137-1 VHH-hFc recombinant antibody (Fc fusion, also called CD137-1; not shown: human IgG1 Fc tag of the eukaryotic expression vector pFclG) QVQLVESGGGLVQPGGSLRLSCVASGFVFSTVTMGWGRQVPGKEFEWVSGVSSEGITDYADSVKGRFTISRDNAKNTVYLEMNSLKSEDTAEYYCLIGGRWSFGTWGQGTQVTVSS', 0.621),
  ('137-16 VHH-hFc recombinant antibody (Fc fusion, VHH fragment inserted into vector pFclG with human IgG1 Fc tag, expressed in HEK293F; Preparation had non-specific bands, purity >70%; also called CD137-16; not shown: human IgG1 Fc tag of the eukaryotic expression vector pFclG) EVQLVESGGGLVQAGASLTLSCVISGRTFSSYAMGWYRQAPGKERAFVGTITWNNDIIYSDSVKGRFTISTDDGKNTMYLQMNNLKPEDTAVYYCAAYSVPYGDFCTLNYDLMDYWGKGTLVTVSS', 0.447),
  ('137-12 VHH-hFc recombinant antibody (Fc fusion, VHH fragment inserted into vector pFclG with human IgG1 Fc tag, expressed in HEK293F; not shown: human IgG1 Fc tag of the eukaryotic expression vector pFclG) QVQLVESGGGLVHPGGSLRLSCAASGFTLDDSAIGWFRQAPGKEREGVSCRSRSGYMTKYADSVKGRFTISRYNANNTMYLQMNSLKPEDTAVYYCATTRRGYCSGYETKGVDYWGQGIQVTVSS', 0.385),
  ('137-36 VHH-hFc recombinant antibody (Fc fusion, VHH fragment inserted into vector pFclG with human IgG1 Fc tag, expressed in HEK293F; not shown: human IgG1 Fc tag of the eukaryotic expression vector pFclG) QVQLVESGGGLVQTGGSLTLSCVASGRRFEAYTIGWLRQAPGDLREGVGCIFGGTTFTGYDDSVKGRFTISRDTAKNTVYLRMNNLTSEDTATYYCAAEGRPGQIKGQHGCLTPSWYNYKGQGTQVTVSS', 0.333);

Ask: Entry 137-39 VHH-hFc recombinant antibody (Fc fusion, VHH fragment inserted into vector pFclG with human IgG1 Fc tag, expressed in HEK293F; Preparation had non-specific bands, purity about 30%; not shown: human IgG1 Fc tag of the eukaryotic expression vector pFclG) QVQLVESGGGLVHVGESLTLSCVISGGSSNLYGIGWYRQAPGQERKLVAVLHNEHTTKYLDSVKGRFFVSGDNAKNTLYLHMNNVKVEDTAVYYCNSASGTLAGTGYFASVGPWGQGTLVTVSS has what absorbance at 450 nm?
Result: 0.292

Ask: Entry 137-7 VHH-hFc recombinant antibody (Fc fusion, VHH fragment inserted into vector pFclG with human IgG1 Fc tag, expressed in HEK293F; also called CD137-7; not shown: human IgG1 Fc tag of the eukaryotic expression vector pFclG) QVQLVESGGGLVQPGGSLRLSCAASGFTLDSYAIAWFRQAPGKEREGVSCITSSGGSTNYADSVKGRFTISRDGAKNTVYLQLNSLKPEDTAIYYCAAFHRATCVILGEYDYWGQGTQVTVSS has what absorbance at 450 nm?
Result: 0.581
